Data credit: patent US6897209B2

test: Normal rat biodistribution; assay type: in vivo; conditions: 60 min post-injection, i.v., male Wistar rats, Mean±SD n=3
# Lookup of reported % ID Muscle keyed by entry
measure.name: % ID Muscle (% ID)

# molecule, data.value
rows = [
    ("CC(CNCc1ccccc1O)(CNCc1ccccc1O)CNC(=O)c1ccc(S(=O)(=O)NCCCCCN)cc1", 4.95),
    ("CC(=NO)C(C)(C)NCCN(CCNC(=O)c1ccc(S(=O)(=O)NCCCCCN)cc1)CCNC(C)(C)C(C)=NO", 1.51),
    ("CC(=NO)C(C)(C)NCC(C)(CNC(=O)C1CCC(CNC(=O)c2ccc(S(=O)(=O)NCCCCCN)cc2)CC1)CNC(C)(C)C(C)=NO (stereo not shown)", 1.22),
    ("CC(=NO)C(C)(C)NCC(C)(CNC(=O)CCCCCN)CNC(C)(C)C(C)=NO (stereo not shown)", 2.26),
]

###

assay: Normal rat biodistribution; type: in vivo; details: 30 min post-injection, i.v., male Wistar rats, Mean±SD n=3

# molecule, % ID GI Tract (% ID)
records = [
    ("CC(=NO)C(C)(C)NCCN(CCNC(=O)C1CCC(CNC(=O)c2ccc(S(=O)(=O)NCCCCCN)cc2)CC1)CCNC(C)(C)C(C)=NO (stereo not shown)", 13.07),
    ("CC(=NO)C(C)(C)NCCN(CCNC(=O)c1ccc(S(=O)(=O)NCCCCCN)cc1)CCNC(C)(C)C(C)=NO", 27.3),
    ("CC(=NO)C(C)(C)NCC(C)(CNC(=O)C1CCC(CNC(=O)c2ccc(S(=O)(=O)NCCCCCN)cc2)CC1)CNC(C)(C)C(C)=NO (stereo not shown)", 80.7),
    ("NCCCCCNS(=O)(=O)c1ccc(C(=O)NCCCNC(=O)c2ccc(NN)nc2)cc1", 31.5),
]

###

experiment: Normal rat biodistribution; assay type: in vivo; settings: 30 min post-injection, i.v., male Wistar rats, Mean±SD n=3
# Lookup of reported % ID Kidney keyed by entry

# compound, result.unit, % ID Kidney
measured = [
    ("CC(=NO)C(C)(C)NCCN(CCNC(=O)C1CCC(CNC(=O)c2ccc(S(=O)(=O)NCCCCCN)cc2)CC1)CCNC(C)(C)C(C)=NO (stereo not drawn)", "% ID", 7.1),
    ("NCCCCCNS(=O)(=O)c1ccc(C(=O)NCCCNC(=O)c2ccc(NN)nc2)cc1", "% ID", 2.52),
    ("CC(=NO)C(C)(C)NCCN(CCNC(=O)c1ccc(S(=O)(=O)NCCCCCN)cc1)CCNC(C)(C)C(C)=NO", "% ID", 3.47),
]
